Experiment: PSAC antagonists in infected red cells, primary screen, cell-based, P. falciparum Indochina, OD700, 18 h (AID 1157)
Conditions: P. falciparum Indochina infected erythrocytes, osmotic lysis OD700, 18 h; higher = more signal, called active from +8 up or from −8 down
Would you mind telling me the reported z-score of each entry?
Numbers only.

// below: answered molecules
- CCOC(=O)CCN1C(=O)[C@H]2[C@H]3[C@H](O)[C@H](O)CC(=NOC[C@@H](O)COCc4ccco4)[C@@H]3CC[C@H]2C1=O: 0.403
- O=C1[C@H]2[C@H]3[C@H](O)[C@H](O)CC(=NOCc4ccccc4)[C@@H]3CC[C@H]2C(=O)N1C1CCCCC1: 0.352
- CCOC(=O)CCN1C(=O)[C@H]2[C@H]3[C@H](O)[C@H](O)CC(=O)[C@H]3CC[C@H]2C1=O: -1.42
- O=C1C2C=CC(C(O)c3ccc([N+](=O)[O-])cc3)N(Nc3ccc([N+](=O)[O-])cc3)C2C(=O)N1c1ccccc1 (centres undefined): 1.02
- COCCOC(=O)N1C(=O)[C@@]2(c3cc(C#CCNC(N)=O)ccc31)[C@H](c1ccc(O)cc1)N1[C@H](c3ccccc3)[C@H](c3ccccc3)OC(=O)[C@H]1[C@@H]2C(=O)N1CCCCCCC1: 0.411

Dear colleague, could you please provide z-score for the molecules listed below?
1. O=C1C[C@@H](O)[C@@H](O)[C@@H]2[C@@H]3C(=O)N(c4cccc(Oc5ccccc5)c4)C(=O)[C@@H]3CC[C@@H]12
2. Cc1cc(C)c(-c2cc([C@H](C)ON=C3[C@H]4CCn5c(=O)n(-c6ccccc6)c(=O)n5[C@H]4[C@H](O)[C@@H]4O[C@H]34)on2)c(C)c1
3. O=C(NN=C1C[C@@H](O)[C@@H](O)[C@@H]2[C@@H]3C(=O)N(c4cccc(Oc5ccccc5)c4)C(=O)[C@@H]3CC[C@H]12)OCc1ccccc1
4. CC(C)CN1CCc2nc(-c3ccccc3)c3c(c2CC1)CO[C@@H](C)C3

Reply:
[0.0818, 0.391, 0.527, -0.142]

---

Test: fission yeast growth modulation, primary screen, strain 972, OD600, 24 h, no modulator (AID 1090);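 note: basal condition with compound alone and no growth modifier present; test concentration not given here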
Conditions: S. pombe 972 growth, called active from +8 up or from −8 down
The source made the active and inactive calls.
Reply using exactly one outcome from active, inactive

Task item: Could you please tell me the result logged for `CC(C)(C)OC(=O)CC[C@]1(C(N)=O)COC(c2ccc(OCCCO)cc2)=N1` in this assay?
Reply: inactive

Task item: Could you please tell me the result logged for `O=C(NN=C1C[C@@H](O)[C@@H](O)[C@@H]2[C@@H]3C(=O)N(c4cccc(Oc5ccccc5)c4)C(=O)[C@@H]3CC[C@@H]12)OCc1ccccc1` in this assay?
Reply: inactive

---

Assay: CREB reporter modulators under forskolin, primary screen, cell-based, PC12, CRE-LacZ reporter, forskolin-stimulated (AID 1146);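 note: PC12 cells with 6xCRE LacZ reporter stimulated by forskolin 10 µM; beta-galactosidase reporter signal reflecting CREB driven transcription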
Settings: luminescence, 4.5 h, higher = more signal, called active from +8 up or from −8 down
The threshold is inclusive: z-score of exactly 0.5 counts as y; values below receive n.

Record excerpt, results attached:
* O=C1C[C@@H](O)[C@@H](O)[C@@H]2[C@@H]3C(=O)N(c4ccc(F)cc4F)C(=O)[C@@H]3CC[C@@H]12 | n
* C=CCN1C(=O)[C@]2(O[C@H](CCn3cc(CCO)nn3)[C@@H]([Si](C)(C)c3ccc(OC)cc3)[C@@H]2C)c2cc(N3CCOC3=O)ccc21 | n
* COc1ccccc1CN1C(=O)c2ccccc2[C@@H](C(=O)NCC(F)(F)F)[C@@H]1c1ccc(CO)cc1 | n
* CCOC(=O)NN=C1C[C@@H](O)[C@@H](O)[C@@H]2[C@@H]3C(=O)N(CC)C(=O)[C@@H]3CC[C@@H]12 | n
* CCN1C(=O)[C@H]2[C@H]3[C@H](O)[C@H](O)CC(=NOC(C)CN4CCCCc5nc(C)c(C)cc54)[C@@H]3CC[C@H]2C1=O (some centres not stated) | y

Task item: Identify whether the reported z-score of the following compound is 0.5 or greater: `O=C1O[C@@H](c2ccccc2)[C@@H](c2ccccc2)N2[C@@H](c3ccc(OCCO)cc3)[C@]3(C(=O)Nc4ccccc43)[C@@H](C(=O)N3CCN(c4ncccn4)CC3)[C@H]12`
Reply: y

---

Assay: MM1S cell viability effects, profiling panel, calcein-AM fluorescence, 48 h, basal (AID 1165);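 note: viability of MM1S multiple myeloma cells under basal unstimulated conditions; test concentration not given here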
Conditions: higher = more signal
The threshold is inclusive: z-score of exactly -0.6 counts as MET; values below receive NOT MET.

• CCCC[C@H]1OB(O)C[C@H]2C1=C(C)C[C@H]1C(=O)N(C)C(=O)[C@H]12 = NOT MET
• C=CCC(OC(C)=O)[C@@H]1[C@@H](N(Cc2cc3ccccc3o2)C(=O)Cc2ccc(F)cc2)c2cc(OCCCO)ccc2N1C(=O)Cc1ccc(OC)cc1 (stereo not given in full) = MET

Task item: Identify whether the reported z-score of the following molecule is -0.6 or greater: Cc1cc2c(nc1C)CCCN2CC(C)ON=C1[C@H]2CCn3c(=O)n(-c4ccccc4)c(=O)n3[C@H]2[C@H](O)[C@@H]2O[C@H]12 (stereo not given in full)
Reply: NOT MET

Task item: Identify whether the reported z-score of the following molecule is -0.6 or greater: Cc1cc2c(nc1C)CCCN2CC(O)CN1CCN(C)CC1 (stereo not given)
Reply: MET

Task item: Identify whether the reported z-score of the following molecule is -0.6 or greater: `CC(=O)OC[C@H]1O[C@H](C#CCCCc2ccccc2)C=C[C@@H]1OC(C)=O`
Reply: NOT MET

---

Target: Epidermal growth factor receptor (Homo sapiens)
Experiment: EGFR binders on small-molecule microarrays, primary screen, biochemical, small-molecule microarray, 635 nm fluorescence (AID 1104);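 note: score merges 667 nm emission intensity with spot signal to noise over triplicate slides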
Settings: EGFR binding, higher = more signal
Would you mind telling me the reported composite z-score of each entry?

// below: answered compounds
- CCCC=C(CCC)[C@@H](NC(=O)c1ccc(-c2ccccc2)cc1)c1ccc(C(=O)OC)cc1: -0.237
- COc1ccc([Si](C)(C)[C@H]2[C@H](CCO)O[C@@]3(C(=O)N(Cc4cccc(NC(=O)[C@H](C)O)c4)c4ccccc43)[C@@H]2C)cc1: 0.382
- CN(C)CCCNC(=O)[C@@H]1c2ccccc2C(=O)N(Cc2ccccc2)[C@H]1c1ccc(CO)cc1: -0.254
- COCCOC(=O)N1C(=O)[C@@]2(c3cc(C#CCNC(N)=O)ccc31)[C@H](c1ccccc1OCCO)N1[C@H](c3ccccc3)[C@H](c3ccccc3)OC(=O)[C@H]1[C@@H]2C(=O)N1CCN(c2ncccn2)CC1: 0.315
- COc1cccc([C@H]2Oc3ccc(OC)cc3C(=NO[C@H](C)c3cn([C@@H]4COC[C@H]4O)nn3)[C@@H]2O)c1: -0.0724

Dear colleague, could you please provide composite z-score for the compounds listed below?
1. COC(=O)C1=CCC(c2cccc(Cl)c2)O1 (stereo not drawn)
2. C=C(/C(=C/C[C@@H](OC(=O)c1ccncc1)c1ccc(OCCO)cc1)c1cnc2ccccc2c1)C(C)C
3. COc1ccc(COC(=O)NN=C2C[C@@H](O)[C@@H](O)[C@@H]3[C@@H]4C(=O)N(c5ccc(F)cc5F)C(=O)[C@@H]4CC[C@@H]23)cc1

Reply:
1: -0.412; 2: 0.419; 3: -0.076

---

Assay: small-molecule microarray binders of probe aDKK1, primary screen, biochemical, biotinylated probe, 635/667 nm fluorescence (AID 1099);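 note: score merges 667nm spot fluorescence with signal to noise across triplicate slides; reference of the scale not given here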
Settings: higher = more signal
The threshold is inclusive: composite z-score of exactly -0.2 counts as Condition met; values below receive Condition not met.

Record excerpt, results attached:
- COC(=O)CC=C[C@H](C)[C@@H](OCc1ccccc1Br)C(C)C: Condition not met
- N#Cc1ccc(NN2C(C(O)c3cccc4ccccc34)C=CC3C(=O)N(c4ccccc4)C(=O)C32)cc1 (stereo not drawn): Condition met
- CC(=O)C[C@H](O)[C@@H](NC(=O)OC(C)(C)C)C(C)C: Condition met
- CN(C)CCCNC(=O)[C@@H]1c2ccccc2C(=O)N(Cc2ccccc2)[C@H]1c1ccc(CO)cc1: Condition met
- CO[C@H]1COC(=O)[C@H](C)NC(=O)[C@@H](C)COC(=O)CC=C[C@@H]1C: Condition not met
- O=C1c2ccccc2[C@@]2(Cc3ccccc3N(C3CC3)C2=O)[C@H](c2ccc(CO)cc2)N1Cc1ccccc1C(F)(F)F: Condition met

Task item: Identify whether the reported composite z-score of the following compound is -0.2 or greater: CC(CCN1CCc2nc(-c3ccccc3)c(-c3ccccc3)cc2C1)=NOC(C)CN1CCCCc2nc(C)c(C)cc21 (stereo not drawn)
Reply: Condition met

Task item: Identify whether the reported composite z-score of the following compound is -0.2 or greater: `COC(=O)CC=C[C@@H](C)[C@H](OC)c1ccccc1Br`
Reply: Condition met
